test system: Leishmania major; experiment: Antileishmanial activity against Leishmania major promastigotes after 72 hrs; type: functional, organism-based
measured-endpoint: IC50

INSERT INTO measurements (smiles_record, measured_endpoint, readout_value) VALUES
  ('COc1ccc(C(=O)/C=C/c2ccc(-n3ccnc3)cc2)cc1OC', 'IC50', '0.82 µg/mL'),
  ('O=C(/C=C/c1ccc(-n2ccnc2)cc1)c1ccc(I)cc1', 'IC50', '0.92 µg/mL'),
  ('O=C(/C=C/c1ccc(-n2ccnc2)cc1)c1ccc(Cl)cc1Cl', 'IC50', '0.72 µg/mL'),
  ('O=C(/C=C/c1ccc(-n2ccnc2)cc1)c1ccc(Cl)c(Cl)c1Cl', 'IC50', '0.63 µg/mL'),
  ('O=C(/C=C/c1ccc(-n2ccnc2)cc1)c1ccc(Cl)cc1', 'IC50', '0.92 µg/mL'),
  ('O=C(/C=C/c1ccc(-n2ccnc2)cc1)c1ccccc1Br', 'IC50', '0.86 µg/mL'),
  ('O=C(/C=C/c1ccc(-n2ccnc2)cc1)c1c(Cl)cccc1Cl', 'IC50', '0.67 µg/mL'),
  ('O=C(/C=C/c1ccc(-n2ccnc2)cc1)c1ccccc1Cl', 'IC50', '0.93 µg/mL'),
  ('O=C(/C=C/c1ccc(-n2ccnc2)cc1)c1cccc(O)c1', 'IC50', '0.96 µg/mL'),
  ('O=C(/C=C/c1ccc(-n2ccnc2)cc1)c1ccc(Br)cc1', 'IC50', '0.86 µg/mL'),
  ('O=C(/C=C/c1ccc(-n2ccnc2)cc1)c1ccccc1', 'IC50', '0.91 µg/mL'),
  ('O=C(/C=C/c1ccc(-n2ccnc2)cc1)c1ccc(F)cc1', 'IC50', '0.71 µg/mL'),
  ('O=C(/C=C/c1ccc(-n2ccnc2)cc1)c1c(F)cccc1F', 'IC50', '0.97 µg/mL'),
  ('O=C(/C=C/c1ccc(-n2ccnc2)cc1)c1ccc(F)c(F)c1', 'IC50', '0.89 µg/mL'),
  ('O=C(/C=C/c1ccc(-n2ccnc2)cc1)c1cccc(F)c1F', 'IC50', '0.83 µg/mL'),
  ('O=C(/C=C/c1ccc(-n2ccnc2)cc1)c1cc(Cl)ccc1Cl', 'IC50', '0.99 µg/mL'),
  ('C[C@@H]1[C@H](O)[C@@H](C)/C=C/C=C/C=C/C=C/C=C/C=C/C=C/[C@H](O[C@@H]2O[C@H](C)[C@@H](O)[C@H](N)[C@@H]2O)C[C@@H]2O[C@](O)(C[C@@H](O)C[C@@H](O)[C@H](O)CC[C@@H](O)C[C@@H](O)CC(=O)O[C@H]1C)C[C@H](O)[C@H]2C(=O)O', 'IC50', '0.56 µg/mL'),
  ('COc1ccc(C(=O)/C=C/c2ccc(-n3ccnc3)cc2)cc1', 'IC50', '0.98 µg/mL'),
  ('COc1cccc(C(=O)/C=C/c2ccc(-n3ccnc3)cc2)c1', 'IC50', '0.98 µg/mL'),
  ('O=C(/C=C/c1ccc(-n2ccnc2)cc1)c1ccc(Cl)c(Cl)c1', 'IC50', '0.99 µg/mL'),
  ('O=C(/C=C/c1ccc(-n2ccnc2)cc1)c1ccccc1F', 'IC50', '0.98 µg/mL');
